tested on: HIPK3; conditions: concentration: 1 μM, replicates: in singlicate; n = 1;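 also: KINOMEscan kinase panel screen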
Kindly state %Inh for each of the entries shown.
Give bare numbers, in %.

INSERT INTO measurements (query_smiles, tested_on, endpoint_value) VALUES
  ('Cl.N#CCc1ccc(Nc2nccc(Nc3ccc(Oc4ccccc4)cc3)n2)cc1', 'HIPK3', 14);

Batch: %Inh for all items listed.
1. O=C(Nc1n[nH]c2cc(-c3cccs3)ccc12)C1CC1
2. CN(C)CCOc1ccc(-c2cc(-c3ccc(Cl)c(O)c3)c(-c3ccncc3)[nH]2)cc1.Cl.Cl

(A)
63
1

I'm hoping you can list %Inh for every molecule here, please.
1. COc1ccc(C2=C(Nc3cccc(O)c3)C(=O)NC2=O)cc1
2. Cn1cc(-c2ccc3c(c2)CCN3C(=O)Cc2cc(F)cc(C(F)(F)F)c2)c2c(N)ncnc21

(A)
[63, 17]

* * *

Assignment: determine reported %Inh for the given compounds.
tested on: p38-beta; construct: gene MAPK11; conditions: concentration: 1 μM, replicates: in singlicate; n = 1
One number for each entry, in %.

Observe how each entry below is paired with its result.
INSERT INTO assay_data (compound, endpoint_value) VALUES
  ('Cc1ccc(NC(=O)c2ccc(Cl)c(Cl)c2)cc1-c1ccc(C(=O)Nc2ccncc2)cc1 [GSK1398460]', 12),
  ('CCn1c(-c2nonc2N)nc2c(-c3ccccc3)ncc(OCCCN)c21.O=C(O)C(F)(F)F.O=C(O)C(F)(F)F [GSK260205]', 65);

Give %Inh for each of the items listed below.
1. CN(c1ccc2c(c1)nc(NCc1ccccc1)n2C)c1ccnc(Nc2ccc(CS(C)(=O)=O)cc2)n1.Cl [GW811603]
2. N#Cc1cnc2cc(-c3cnc(CNCCN4CCOCC4)s3)ccc2c1Nc1ccc(Oc2ccccc2)cc1 [GW664114]

(A)
0
0

* * *

system: EIF2AK1; details: concentration: 1 μM, replicates: in singlicate; n = 1
readout.type: %Inh (%)
Answers are plain numbers, in %.

INSERT INTO assay_data (molecule, endpoint_value) VALUES
  ('COc1ccc(C)c(Nc2ccnc(Nc3ccc(-c4cnc[nH]4)cc3)n2)c1.Cl [GW784041]', 0),
  ('COc1cccc(CC(=O)N2CCc3cc(-c4cn(C)c5ncnc(N)c45)ccc32)c1 [GSK2608899]', 87),
  ('Cc1cccc(Nc2nc(N[C@H]3CCCC[C@H]3N)ncc2C(N)=O)c1.Cl [GSK986310]', 22),
  ('Cc1ccc(-c2ccc3occ(-c4ccc(S(C)=O)cc4)c3c2)nn1 (stereo not drawn)', 0);

Fill in %Inh for each of the 6 molecules listed.
1. CN(C)CCOc1ccc(-c2cc(-c3ccc(Cl)c(O)c3)c(-c3ccncc3)[nH]2)cc1.Cl.Cl [SB-684387]
2. CN(c1ccc(NC(=O)N2CCN(CCCN3CCOCC3)CC2)cc1)c1ccnc(Nc2ccc(CS(C)(=O)=O)cc2)n1.Cl [GW830899]
3. COc1cccc(-c2nc(-c3ccccc3)[nH]c2-c2ccncc2)c1 [SB-610250]
4. CNc1nccc(-c2ccc3c(N)n[nH]c3c2)n1 [GSK2206003]
5. COC(=O)Nc1nc2cc(Oc3ccc(NC(=O)Nc4cccc(SC)c4)cc3)ccc2[nH]1.Cl [GW697999]
6. NCCC(NC(=O)c1cc(Br)c(-c2ccnc3[nH]ccc23)s1)c1ccccc1.O=C(O)C(F)(F)F.O=C(O)C(F)(F)F (stereo not drawn) [GSK1307810]

(A)
1. 31
2. 0
3. 5
4. 0
5. 0
6. 0

Give %Inh for each of the items listed below.
1. CN(C)CCNS(=O)(=O)c1ccc(-c2ccnc3[nH]ccc23)cc1 [GSK977620]
2. O=C(Nc1n[nH]c2nc(-c3ccccc3)ccc12)C1CC1 [SB-708999]
3. COc1cccc(C2=C(Nc3cccc(O)c3)C(=O)NC2=O)c1 [SB-390771]
4. Cc1ccc(NC(=O)c2ccnc(N3CCCCC3)c2)cc1-c1ccc(C(=O)NCC2CC2)cc1 [GW775610]
5. CSc1ccc(NC2=C(c3ccc(Cl)cc3)C(=O)NC2=O)cc1 [SB-317658]
6. CCOc1nccc(-c2c(-c3ccc(F)cc3)ncn2C2CCNCC2)n1 [SB-249175]
7. Cc1ccc(NC(=O)c2ccc(Cl)c(Cl)c2)cc1-c1ccc(C(=O)Nc2ccncc2)cc1 [GSK1398460]

(A)
1: 0; 2: 0; 3: 3; 4: 0; 5: 0; 6: 45; 7: 7

(Q) Need %Inh of Cc1ccc(O)cc1Nc1ccnc2ccc(C(C)(C)C)cc12 [GW856805] , thanks.
(A) 44
